Origin of the recorded values: paper PMC10087074

# method: Population PK of trazodone and gabapentin as single agents in mice
# Assay type: in vivo
# protocol conditions: male, mouse, plasma, 10 mg/kg
property name: Vd/F

INSERT INTO measurements (line_notation, reported_measurement) VALUES
  ('O=c1n(CCCN2CCN(c3cccc(Cl)c3)CC2)nc2ccccn12', '5.95 L/kg');

====

# method: Population PK of trazodone and gabapentin as single agents in mice
# Type: in vivo
# protocol conditions: male, mouse, plasma, 100 mg/kg
property name: Vd/F (L/kg)

INSERT INTO measurements (line_notation, reported_measurement) VALUES
  ('NCC1(CC(=O)O)CCCCC1', 0.846);
